Data origin, for the record: paper PMC6161018

- protocolNotes: Surface tension measurements (tensiometry), CMC determination
- Assay type: physicochemical
- appliedConditions: air-water interface, calculated from Γmax
- Method: Surface tension of different concentrations of surfactant solutions in water was measured using a platinum cylindrical rod probe with wetted length of 1.6 mm (K100-Krüss force tensiometer, Hamburg, Germany) at room temperature. […] Data are expressed as the mean of three repeated measurements performed at room temperature. […] The minimum area per surfactant molecule at the air-water interface (Amin) was determined as follow:(2) Amin= 10^18/N × Γmax where N is the Avogadro number.
property: Amin (minimum area per surfactant molecule) (Å^2)
Express it in Å^2; write the number only.

Reference set, count: 3
• CCCCCCCCCCCCCCCC(=O)OC[C@H]1O[C@@H](O[C@H]2[C@H](O)[C@@H](O)[C@@H](O)O[C@@H]2CO)[C@H](O)[C@@H](O)[C@H]1O [Lactose palmitate] = 25.69
• CCCCCCCCCCCCCC(=O)OC[C@H]1O[C@@H](O[C@H]2[C@H](O)[C@@H](O)[C@@H](O)O[C@@H]2CO)[C@H](O)[C@@H](O)[C@H]1O [Lactose myristate] = 19.86
• CCCCCCCCCC(=O)OC[C@H]1O[C@@H](O[C@H]2[C@H](O)[C@@H](O)[C@@H](O)O[C@@H]2CO)[C@H](O)[C@@H](O)[C@H]1O [Lactose caprate] = 17.46

Input line: Output Amin (minimum area per surfactant molecule) of CCCCCCCCCCCC(=O)OC[C@H]1O[C@@H](O[C@H]2[C@H](O)[C@@H](O)[C@@H](O)O[C@@H]2CO)[C@H](O)[C@@H](O)[C@H]1O [Lactose laurate]
Output line: 17.45
